# Test system: sensitized guinea pig trachea
# procedureText: Schultz-Dale reaction, sensitized guinea pig trachea (tracheal spirals), ovalbumin challenge
# Type: cell-based
# protocolConditions: Cavia porcellus; sensitized guinea pig trachea; read-out: EC50 in the Schultz-Dale reaction
measuredEndpoint: EC50 (µM)

compound	numericValue
CC(=O)c1ccc(OCC(O)COc2cccc([N+](=O)[O-])c2)cc1O (stereo not shown)	76

---

# Tested on: sensitized guinea pig trachea
# procedureText: Schultz-Dale reaction, sensitized guinea pig trachea (tracheal spirals), ovalbumin challenge
# Format: cell-based
# protocolConditions: Cavia porcellus, 1.5 h; 50 percent reduction in area under the curve at 90 minutes; read-out: Tracheal Spirals EC50
pEC50: −log10 of the molar value. Counter-ions that a name gives are not always drawn.
measuredEndpoint: pEC50

compound	testedTarget	measuredEndpoint	numericValue
CCCc1c(OCC(O)CNc2cccc(NC(=O)C(=O)OCC)c2C#N)ccc(C(C)=O)c1O (stereo not shown) [Example 7]	sensitized guinea pig trachea	pEC50	4.52
CCCc1c(OCC(O)COc2cccc(NC(=O)C(=O)OCC)c2)ccc(C(C)=O)c1O (stereo not shown) [Example 5]	sensitized guinea pig trachea	pEC50	4.01
CCCc1c(OCC(O)COc2cccc(NC(=O)C(=O)O)c2C#N)ccc(C(C)=O)c1O (stereo not shown) [Example 3, sodium salt]	sensitized guinea pig trachea	pEC50	4.28
CCCc1c(OCC(O)CNc2cccc(NC(=O)C(=O)O)c2C#N)ccc(C(C)=O)c1O (stereo not shown) [Example 8, sodium salt]	sensitized guinea pig trachea	pEC50	4.60
CCCc1c(OCC(O)COc2cccc(NC(=O)C(=O)OCC)c2C#N)ccc(C(C)=O)c1O (stereo not shown) [Example 2]	sensitized guinea pig trachea	pEC50	5.06
CCCc1c(OCC(O)COc2cccc(N)c2)ccc(C(C)=O)c1O (stereo not shown) [Example 4]	sensitized guinea pig trachea	pEC50	4.44
CCCc1c(OCC(O)COc2cccc(N)c2C#N)ccc(C(C)=O)c1O (stereo not shown) [Example 1]	sensitized guinea pig trachea	pEC50	4.70
